In this section we review reported Kd values for a set of binders.
# Tested On: DmDM15 (fruit fly, UniProt A0A0B4K7Y7 1330-1481)
# Sequence (A0A0B4K7Y7 entry or part of it): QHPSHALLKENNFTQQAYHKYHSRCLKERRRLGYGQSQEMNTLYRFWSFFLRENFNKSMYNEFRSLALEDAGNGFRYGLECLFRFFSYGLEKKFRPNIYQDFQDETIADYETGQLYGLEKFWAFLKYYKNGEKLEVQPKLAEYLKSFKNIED
# Assay Method Text: EMSA; EMSA: 20 mM Tris-HCl pH 8, 150 mM NaCl, 10% glycerol, 1 mM DTT, 0.5 ug tRNA, 1 ug BSA, pM RNA (95 C, snap cooled), 0.5-1 h on ice; native 7% PAGE, 0.5X TBE
# Test Settings: protein: recombinant; tags: His6-MBP removed by TEV; label: 32P in cap; hairpin (predicted)
Response body: numeric value in nM, unit text excluded.

Example entries begin here.
CCUUCUCCCCGCUUAUCUCUUUGAGAUAAAUGCAUAUUUUUU (structured_RNA, 5' m7G cap (Vaccinia capping)) [HsPABPC1_Stem, capped] : 6.1
CCUCUUUUCCGUGGCGCCUCGGAGGCGUUCAGCUGCUUCAAG (structured_RNA, 5' m7G cap (Vaccinia capping)) [HsRPS6 42-mer, capped] : 58

Proceed to the following item.
Summary for this binder, CCUCUUUUCCGCUUAUCUCUUUGAGAUAAAUGCAUAUUUUUU (structured_RNA, 5' m7G cap (Vaccinia capping)) [HsRPS6_Stem, capped] : Kd is 29
